assay: P. aeruginosa biofilm formation inhibitors, primary screen, PAO1 strain, BacTiter-Glo luminescence, LB-PBS (AID 1144); settings: 12 h, higher = more signal
endpoint: z-score
Reply with the value as a number alone.

compound=O=C(NN=C1C[C@@H](O)[C@@H](O)[C@@H]2[C@@H]3C(=O)N(Cc4ccc5c(c4)OCO5)C(=O)[C@@H]3CC[C@H]12)OCc1ccccc1 endpoint=z-score test_result=1.54
compound=CCOC(=O)NN=C1C[C@@H](O)[C@@H](O)[C@@H]2[C@@H]3C(=O)N(Cc4ccc5c(c4)OCO5)C(=O)[C@@H]3CC[C@@H]12 endpoint=z-score test_result=1.43
compound="C=CCN(C(=O)C1N(CCCCCCO)C(=O)C2C(C(=O)O)C3C=CC21O3)c1ccc(OC)cc1 (stereo not drawn)" endpoint=z-score test_result=1.51
compound=Cc1ccc(S(=O)(=O)N[C@H]2COC(=O)[C@@H](C)COC(=O)[C@H](C)NC(=O)CC=C[C@H]2C)cc1 endpoint=z-score test_result=-0.16
compound=CO[C@H]1COC(=O)CC=C[C@@H](C)COC(=O)[C@@H](OCc2ccccc2)C=C[C@@H]1C endpoint=z-score test_result=0.106

Now let's try a different one.
Reported z-score for C=CCN(C(=O)C(c1cccs1)N(CCOCCO)C(=O)/C=C\C(=O)O)c1ccc(OC)cc1 (stereo not drawn) was -2.23
